Tested On: CXCR4 (Homo sapiens)
Sequence (P61073 whole entry): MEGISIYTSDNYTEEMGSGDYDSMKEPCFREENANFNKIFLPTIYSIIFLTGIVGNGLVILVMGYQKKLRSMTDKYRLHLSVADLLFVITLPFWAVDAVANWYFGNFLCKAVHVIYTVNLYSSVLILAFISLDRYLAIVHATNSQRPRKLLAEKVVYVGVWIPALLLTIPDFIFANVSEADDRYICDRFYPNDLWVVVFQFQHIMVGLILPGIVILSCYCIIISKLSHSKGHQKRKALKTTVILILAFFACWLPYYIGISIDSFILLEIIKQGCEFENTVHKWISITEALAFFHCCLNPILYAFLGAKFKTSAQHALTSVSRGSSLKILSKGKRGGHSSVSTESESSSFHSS
Assay Summary: Chemokine-induced calcium signalling assay
Protocol Conditions: read-out: Ca^2+ flux IC50 CXCR4; CXCR4-positive U87 cell line, CXCL12 (SDF-1) induced Ca^2+ signalling, triplicate average
Property Name: IC50 (µM)
Expressed in µM, but write only the number.

// query Look up IC50: CC(=O)[O-].[Cu+2].c1ccc(CN2CCCN3CCN(CCCN(Cc4ccccc4)CC3)CC2)cc1 [[Cu5(OAc)]^+]
// result 0.156

Source of measurements: paper PMC5224883
